Biological target: Integrin beta-2 (Homo sapiens) + Integrin alpha-M (Homo sapiens) (UniProt P05107+P11215)
Sequence (P05107 whole entry, looked up, other chains not shown): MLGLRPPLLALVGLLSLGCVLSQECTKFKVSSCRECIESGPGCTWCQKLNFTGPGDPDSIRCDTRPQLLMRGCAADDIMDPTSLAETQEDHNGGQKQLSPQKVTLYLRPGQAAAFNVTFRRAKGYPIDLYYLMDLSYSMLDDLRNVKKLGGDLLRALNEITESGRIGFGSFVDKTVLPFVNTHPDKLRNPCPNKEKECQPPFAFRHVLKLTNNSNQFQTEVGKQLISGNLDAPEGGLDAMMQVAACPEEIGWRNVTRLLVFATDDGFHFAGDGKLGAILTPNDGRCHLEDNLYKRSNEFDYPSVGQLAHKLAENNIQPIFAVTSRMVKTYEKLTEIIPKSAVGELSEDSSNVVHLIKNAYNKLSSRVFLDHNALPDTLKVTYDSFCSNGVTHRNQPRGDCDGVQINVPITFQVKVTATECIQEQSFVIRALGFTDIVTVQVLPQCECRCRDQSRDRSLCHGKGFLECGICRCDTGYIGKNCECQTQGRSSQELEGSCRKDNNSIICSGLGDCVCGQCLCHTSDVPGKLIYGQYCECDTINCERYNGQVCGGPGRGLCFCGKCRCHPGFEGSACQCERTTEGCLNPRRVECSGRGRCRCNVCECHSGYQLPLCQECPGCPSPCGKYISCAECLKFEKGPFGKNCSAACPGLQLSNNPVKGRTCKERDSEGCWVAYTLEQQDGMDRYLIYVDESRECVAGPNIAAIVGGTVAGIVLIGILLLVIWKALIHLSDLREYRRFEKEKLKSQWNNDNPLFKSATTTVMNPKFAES
Assay: enhancers of CD11b/CD18 adhesion to fibrinogen, primary screen, K562 cells, luminescence (AID 1499)
Conditions: ATPlite luminescence, at 10 µM, hits give high values
The whole screen tested about 93,000 compounds, of which about 65 (0.07%) were called active. The sample holds actives, similar compounds and a random draw of the others, so the mix is not that of the screen.
// values below are reported activation
The reply should contain only the number, in %.

Here's what some known entries look like.
INSERT INTO results (compound, endpoint_label, unit_descriptor, result_number) VALUES
  ('O=C(Nc1nnc(SCc2ccccc2Cl)s1)c1cccc([N+](=O)[O-])c1', 'activation', '%', -9.7),
  ('COCCCNC(=O)Cn1cc(/C=C(\C#N)C(=O)N2CCN(c3ccccc3)CC2)c2ccccc21', 'activation', '%', 0),
  ('O=C(Cn1nnc(-c2ccccc2)n1)NCc1ccc2c(c1)OCO2', 'activation', '%', -1.1);

// activation lookup, compound = C=CCn1c(SCn2nnc3ccccc3c2=O)nnc1-c1ccc(Cl)cc1 , result: 4.1

Notebook: CCOC(=O)C1=C(C)N=C2c3ccccc3C(=O)C2C1c1ccc(Br)cc1 (centres undefined) , activation read as 4.9

response.value for Clc1cccc(N=C2NN=C(c3ccc4c(c3)OCCO4)CS2)c1 (field: activation) = 4.8

Memo: Cc1ccc(NC(=S)N2CCN(c3ncccn3)CC2)cc1C , reported activation: -7.7

Entry Cc1csc(=Nc2ccccc2)n1CCO ; activation = 0.8

The reported value for Cc1cc(Br)ccc1SCC(=O)OCC(=O)NCc1ccc2c(c1)OCO2 in terms of activation is 4.5
